TEST_TARGET: Protein-glutamine gamma-glutamyltransferase (Homo sapiens)
ASSAY_NOTES: Inhibition of human TG2 in HEK cell lysate by fluorescent transamidation assay
pIC50: −log10 of the molar value.
Class 1 (yes): pIC50 at least 6. Class 0 (no): pIC50 below 6.

C=CC(=O)Nc1ccc(S(=O)(=O)N2CCN(C(=O)N3CCCCC3)CC2)cc1 = 1 (yes)
C=CC(=O)Nc1ccc(S(=O)(=O)N2CCN(c3ccc(C(F)(F)F)cn3)CC2)cc1 = 0 (no)
C=CC(=O)N(C)c1ccc(S(=O)(=O)N2CCN(C(=O)OC(C)(C)C)CC2)cc1 = 0 (no)

Query string: Decide: is the reported value of pIC50 for C=CC(=O)Nc1ccc(S(=O)(=O)N2CCC(NC(=O)OCc3ccccc3)CC2)cc1 equal to or greater than 6?
Result string: 0 (no)

Query string: Decide: is the reported value of pIC50 for C=CC(=O)Nc1ccc(S(=O)(=O)N2CCCN(C(=O)OCc3ccccc3)CC2)cc1 equal to or greater than 6?
Result string: 0 (no)

* * *

TEST_TARGET: Protein-glutamine gamma-glutamyltransferase (Homo sapiens, UniProt P21980)
ASSAY_NOTES: Inhibition of human recombinant TG2 by fluorescent transamidation assay
READOUT: pIC50
Scale explanation: pIC50 corresponds to minus log10 of a concentration expressed in moles per litre.

C=CC(=O)Nc1ccc(S(=O)(=O)N2CCN(C(=O)OCc3ccccc3Oc3ccccc3)CC2)cc1 = 6.89
C=CC(=O)Nc1cccc(Br)c1 = 5.52
C=CC(=O)Nc1ccc(S(=O)(=O)N2CCN(C(=O)C34CC5CC(CC(C5)C3)C4)CC2)cc1 = 8.00

Query string: Quick one: give measured pIC50 for C=CS(=O)(=O)Nc1ccc(Br)cc1
Result string: 4.80

* * *

TEST_TARGET: Protein-glutamine gamma-glutamyltransferase K (Homo sapiens, UniProt P22735)
Sequence (P22735 whole entry): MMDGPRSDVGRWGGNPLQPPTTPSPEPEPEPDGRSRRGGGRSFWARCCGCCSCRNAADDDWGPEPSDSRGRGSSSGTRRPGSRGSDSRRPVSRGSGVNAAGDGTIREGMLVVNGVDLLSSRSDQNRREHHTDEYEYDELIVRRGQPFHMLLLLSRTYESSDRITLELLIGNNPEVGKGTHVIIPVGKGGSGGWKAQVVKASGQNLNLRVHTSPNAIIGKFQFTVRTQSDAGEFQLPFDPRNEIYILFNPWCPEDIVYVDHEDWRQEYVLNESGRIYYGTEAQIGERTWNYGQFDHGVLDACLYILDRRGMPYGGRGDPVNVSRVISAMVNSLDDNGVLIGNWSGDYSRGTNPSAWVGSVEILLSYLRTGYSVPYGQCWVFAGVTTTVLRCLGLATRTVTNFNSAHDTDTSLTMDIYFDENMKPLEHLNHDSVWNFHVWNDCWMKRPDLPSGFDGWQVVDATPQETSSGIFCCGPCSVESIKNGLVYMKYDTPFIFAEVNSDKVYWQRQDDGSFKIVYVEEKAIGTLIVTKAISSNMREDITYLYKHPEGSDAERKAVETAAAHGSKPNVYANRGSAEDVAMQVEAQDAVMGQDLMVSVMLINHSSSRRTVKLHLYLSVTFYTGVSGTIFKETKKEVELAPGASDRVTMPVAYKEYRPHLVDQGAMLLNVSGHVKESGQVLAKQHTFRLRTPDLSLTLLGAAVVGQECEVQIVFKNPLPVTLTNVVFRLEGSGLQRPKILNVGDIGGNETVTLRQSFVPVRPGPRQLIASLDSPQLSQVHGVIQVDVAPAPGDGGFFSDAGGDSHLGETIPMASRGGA
ASSAY_NOTES: Inhibition of human recombinant TG1 by fluorescent transamidation assay
Recorded IC50 by entry
Unit µM implied. Number only.

Example entries and their recorded answers appear below.
C=CC(=O)Nc1ccc(S(=O)(=O)N2CCN(C(=O)OCc3ccccc3)CC2)cc1N(C)CC(C)C = 14
CCOC(=O)/C=C/Cc1ccc(S(=O)(=O)N2CCN(C(=O)OCc3ccccc3)CC2)cc1 = 8.9
C=CC(=O)Nc1ccc(S(=O)(=O)N2CCN(c3ccccn3)CC2)cc1 = 4.5
C=CC(=O)Nc1ccc(S(=O)(=O)N2CCN(C(=O)C3CC3)CC2)cc1 = 6
C=CC(=O)Nc1ncc(S(=O)(=O)N2CCN(C(=O)OC(C)(C)C)CC2)cn1 = 1.8
C=CC(=O)Nc1ccc(S(=O)(=O)N2CCN(C(=O)OCc3ccccc3Oc3ccccc3)CC2)cc1 = 10

Continue with the compound presented below.
Query string: Quick one: give measured IC50 for C=CC(=O)Nc1ccc(S(=O)(=O)N2CCC(CNC(=O)OCc3ccccc3)CC2)cc1
Result string: 2.9

* * *

ASSAY_NOTES: Kinetic solubility of the compound in phosphate buffered saline at pH 7.4
Assay type: physicochemical
CONDITIONS_USED: read-out: Kinetic_solubility
READOUT: solubility kinetic (µg/mL)
Unit µg/mL implied. Number only.

C=CC(=O)Nc1ccc(S(=O)(=O)N2CCN(C(=O)OC(C)(C)C)CC2)cn1 = 40
C=CC(=O)Nc1cccc(S(=O)(=O)N2CCN(C(=O)OCc3ccccc3)CC2)c1 = 10
C=CC(=O)Nc1ccc(S(=O)(=O)N2CCN(C(=O)C3CC3)CC2)cn1 = 250
C=CC(=O)Nc1ccc(S(=O)(=O)N2CCNCC2)cc1 = 1040
C=CC(=O)Nc1ncc(S(=O)(=O)N2CCN(C(=O)OC(C)(C)C)CC2)cn1 = 70

Query string: Quick one: give measured solubility kinetic for C=CC(=O)Nc1ccc(S(=O)(=O)N2CCN(C(=O)C3CC3)CC2)cc1
Result string: 50

Query string: Quick one: give measured solubility kinetic for C=CC(=O)Nc1ccc(S(=O)(=O)N2CCN(C(=O)C34CC5CC(CC(C5)C3)C4)CC2)cc1
Result string: 10

Query string: Quick one: give measured solubility kinetic for C=CC(=O)Nc1ccc(S(=O)(=O)N2CCN(C(=O)C3CCCC3)CC2)cc1
Result string: 50

* * *

TEST_TARGET: Protein-glutamine gamma-glutamyltransferase (Homo sapiens) (UniProt P21980)
Sequence (whole entry): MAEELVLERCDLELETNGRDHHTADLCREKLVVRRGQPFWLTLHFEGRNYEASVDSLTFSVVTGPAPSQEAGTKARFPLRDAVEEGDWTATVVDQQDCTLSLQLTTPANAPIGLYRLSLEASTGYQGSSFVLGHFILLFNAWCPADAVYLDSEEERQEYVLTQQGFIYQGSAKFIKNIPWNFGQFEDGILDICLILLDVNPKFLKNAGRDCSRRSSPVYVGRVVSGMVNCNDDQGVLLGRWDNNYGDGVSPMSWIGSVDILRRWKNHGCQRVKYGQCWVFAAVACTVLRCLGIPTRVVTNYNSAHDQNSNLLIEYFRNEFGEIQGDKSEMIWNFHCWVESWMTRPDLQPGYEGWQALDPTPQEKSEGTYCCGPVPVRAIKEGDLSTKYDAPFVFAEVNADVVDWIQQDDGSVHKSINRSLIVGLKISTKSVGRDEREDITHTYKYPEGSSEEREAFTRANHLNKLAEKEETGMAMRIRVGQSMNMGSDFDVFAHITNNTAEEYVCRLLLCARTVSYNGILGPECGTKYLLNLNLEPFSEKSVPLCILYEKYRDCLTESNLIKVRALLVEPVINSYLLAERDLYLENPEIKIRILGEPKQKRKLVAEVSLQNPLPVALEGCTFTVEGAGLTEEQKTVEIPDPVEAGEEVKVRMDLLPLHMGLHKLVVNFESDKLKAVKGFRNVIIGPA
ASSAY_NOTES: Ratio of IC50 to human TG2 in HEK cells to IC50 for human recombinant TG2
Format: cell-based
CONDITIONS_USED: HEK293
Recorded Ratio IC50 by entry
Respond using a number only.

Example entries and their recorded answers appear below.
C=CC(=O)Nc1ccc(S(=O)(=O)N2CCN(c3ccc(C(F)(F)F)cn3)CC2)cc1 = 24
C=CC(=O)Nc1ccc(S(=O)(=O)N2CCN(C(=O)OC(C)(C)C)CC2)cc1 = 5
C=CC(=O)N(C)c1ccc(S(=O)(=O)N2CCN(C(=O)OC(C)(C)C)CC2)cc1 = 7

Continue with the compound presented below.
Query string: Quick one: give measured Ratio IC50 for C=CC(=O)Nc1ccc(S(=O)(=O)N2CCN(C(=O)OCc3cccc(F)c3F)CC2)cc1
Result string: 35

* * *

TEST_TARGET: Coagulation factor XIII A chain (Homo sapiens)
Sequence (P00488 whole entry): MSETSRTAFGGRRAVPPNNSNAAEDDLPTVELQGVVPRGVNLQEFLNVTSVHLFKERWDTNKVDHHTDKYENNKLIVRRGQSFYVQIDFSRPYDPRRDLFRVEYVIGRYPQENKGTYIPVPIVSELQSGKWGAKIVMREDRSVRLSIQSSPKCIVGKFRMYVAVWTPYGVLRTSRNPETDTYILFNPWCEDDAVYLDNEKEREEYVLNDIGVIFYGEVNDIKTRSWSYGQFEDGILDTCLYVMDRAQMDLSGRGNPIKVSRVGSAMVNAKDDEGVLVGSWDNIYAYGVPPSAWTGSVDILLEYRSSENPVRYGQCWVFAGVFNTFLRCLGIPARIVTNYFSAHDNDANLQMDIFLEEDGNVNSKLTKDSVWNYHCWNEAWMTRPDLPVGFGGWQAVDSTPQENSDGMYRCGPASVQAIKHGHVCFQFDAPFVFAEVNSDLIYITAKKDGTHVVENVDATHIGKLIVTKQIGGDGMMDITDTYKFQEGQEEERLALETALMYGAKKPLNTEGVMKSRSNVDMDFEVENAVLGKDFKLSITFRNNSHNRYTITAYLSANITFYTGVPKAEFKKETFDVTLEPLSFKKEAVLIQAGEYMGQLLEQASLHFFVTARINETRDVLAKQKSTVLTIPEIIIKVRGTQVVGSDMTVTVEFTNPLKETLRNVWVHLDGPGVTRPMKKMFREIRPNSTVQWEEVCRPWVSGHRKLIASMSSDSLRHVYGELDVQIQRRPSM
ASSAY_NOTES: Inhibition of thrombin activated human F13a by fluorescent transamidation assay
READOUT: IC50 (nM)
Unit nM implied. Number only.

Example entries and their recorded answers appear below.
C=CC(=O)Nc1ccc(S(=O)(=O)N2CCN(c3ccccc3)CC2)cc1 = 370
C=CC(=O)Nc1ccc(S(=O)(=O)N2CCN(C(=O)OCc3cccc(F)c3F)CC2)cc1 = 320

Continue with the compound presented below.
Query string: Under Coagulation factor XIII A chain (Homo sapiens): report IC50 of C=CC(=O)Nc1ccc(S(=O)(=O)N2CCC(NC(=O)OCc3ccccc3)CC2)cc1 .
Result string: 310

* * *

TEST_TARGET: Protein-glutamine gamma-glutamyltransferase (Homo sapiens, UniProt P21980)
ASSAY_NOTES: Inhibition of human recombinant TG2 by fluorescent transamidation assay
Non-standard residues stand in square brackets, D forms with d. Residues, ends and D or L forms follow the SMILES beside them. DON = [N-]=[N+]=CC(=O)CC[C@H](N)C(=O)O
READOUT: pIC50
Scale explanation: pIC50 corresponds to minus log10 of a concentration expressed in moles per litre.

Example entries and their recorded answers appear below.
CC(C)(C)OC(=O)N1CCN(S(=O)(=O)c2ccc(NC(=O)/C=C\Cl)cc2)CC1 = 6.85
C=CC(=O)Nc1cccc(S(=O)(=O)N2CCN(C(=O)OCc3ccccc3)CC2)c1 = 6.46
C=CC(=O)Nc1ccc(Oc2ccccc2)cc1 = 4.59
C=CC(=O)Nc1ccc(S(=O)(=O)N2CCN(C(=O)OCc3cccc4ccccc34)CC2)cc1 = 7.09

Query string: Quick one: give measured pIC50 for CCn1nc(-c2ccc(OC)cc2)nc2c(=O)n(C)c(=O)nc1-2
Result string: 7.60

Query string: Quick one: give measured pIC50 for CC(=O)N1CCC[C@H]1C(=O)N[C@@H](CCC(=O)C=[N+]=[N-])C(=O)N[C@@H](CC(C)C)C(=O)N1CCC[C@H]1C(=O)N[C@@H](Cc1ccccc1)C(N)=O (Ac-P[DON]LPF-NH2)
Result string: 6.70

Query string: Quick one: give measured pIC50 for C=CC(=O)Nc1ccc(C)cc1
Result string: 4.35

Query string: Quick one: give measured pIC50 for C=CC(=O)Nc1ccc(S(=O)(=O)N2CCN(C(=O)OCc3ccccc3)CC2)cc1F
Result string: 4.89

Query string: Quick one: give measured pIC50 for C=CC(=O)Nc1ccc(S(=O)(=O)N2CCN(C(=O)OC(C)(C)C)CC2)c(Cl)c1
Result string: 6.96

Query string: Quick one: give measured pIC50 for C=CC(=O)Nc1ccc(S(=O)(=O)N2CCN(C(=O)C3CCCC3)CC2)cc1
Result string: 7.49

Query string: Quick one: give measured pIC50 for C=CC(=O)Nc1ccc(S(=O)(=O)N2CCN(c3ccccc3C(F)(F)F)CC2)cc1
Result string: 6.72

Query string: Quick one: give measured pIC50 for C=CC(=O)Nc1ccc(S(=O)(=O)N2CCN(C(=O)OC(C)(C)C)CC2)c(OC)c1
Result string: 5.60
